# Assay Protocol: Cytotoxicity in growing KB cells, crystal violet staining
# Assay type: cell-based
# Experimental Setup: human, read-out: 50% Inhibitory Concentration, KB Cytotoxicity

{"Structure": "COC(=N)c1c(Cl)n([C@@H]2O[C@H](CO)[C@@H](O)[C@H]2O)c2cc(Cl)c(Cl)cc12", "Unit Abbrev": "µM", "IC50 at 48 h": 90}
{"Structure": "O=Cc1c(Cl)n([C@@H]2O[C@H](CO)[C@@H](O)[C@H]2O)c2cc(Cl)c(Cl)cc12", "Unit Abbrev": "µM", "IC50 at 48 h": 45}
{"Structure": "C[C@H]1O[C@@H](n2c(Cl)c(C=O)c3cc(Cl)c(Cl)cc32)[C@H](O)[C@@H]1O", "Unit Abbrev": "µM", "IC50 at 48 h": 25}
{"Structure": "CC(=O)OC[C@H]1O[C@@H](n2c(Br)c(C=O)c3cc(Cl)c(Cl)cc32)[C@H](O)[C@@H]1O", "Unit Abbrev": "µM", "IC50 at 48 h": 40}
{"Structure": "CN(C)c1c(C#N)c2cc(Cl)c(Cl)cc2n1[C@@H]1O[C@H](CO)[C@@H](O)[C@H]1O", "Unit Abbrev": "µM", "IC50 at 48 h": 90}

* * *

# Assay Protocol: Cytotoxicity in stationary HFF cells, microscopic inspection
# Format: cell-based
# Experimental Setup: human, stationary human foreskin fibroblasts (HFF cells), read-out: 50% Inhibitory Concentration, HFF Cytotoxicity
# Method: Cytotoxicity assays. Two different assays were used for routine cytotoxicity testing. (i) Cytotoxicity produced in stationary HFF cells was determined by microscopic inspection of cells not affected by the virus used in plaque assays (Turk, et al., Agents Chemother. 1987, 31, 544-550, herein incorporated by reference). […] Acidified ethanol was added and plates read at 570 nm in a spectrophotometer designed to read 96-well ELISA assay plates. […]
pIC50: −log10 of the molar value.

{"Molecule": "COC(=N)c1c(Cl)n([C@@H]2O[C@H](CO)[C@@H](O)[C@H]2O)c2cc(Cl)c(Cl)cc12 [Compound 4.34]", "pIC50": 4.00}
{"Molecule": "CN(C)c1c(C#N)c2cc(Cl)c(Cl)cc2n1[C@@H]1O[C@H](CO)[C@@H](O)[C@H]1O [Compound 4.14]", "pIC50": 4.00}

* * *

# Tested on: human cytomegalovirus (HCMV)
# Assay Protocol: HCMV plaque reduction assay
# Type: cell-based, HCMV Towne strain in HFF cells
# Experimental Setup: Human betaherpesvirus 5, HFF, read-out: 50% Inhibitory Concentration, HCMV Activity
# Protocol: Virological procedures. The Towne strain, plaque-purified isolate Po, of HCMV was kindly provided by Dr. Mark Stinski, University of Iowa. […] Virus titers were determined using monolayer cultures of HFF cells for HCMV and monolayer cultures of BSC-1 cells for HSV-1 as described earlier (Prichard, et al., J. Virol. Methods 1990, 28, 101-106, herein incorporated by reference). […] Data Analysis. […] Fifty percent inhibitory concentrations (IC50's) were calculated from the linear portions of the regression lines. […]
Listing of entries alongside the reported IC50.

{"Molecule": "C[C@H]1O[C@@H](n2c(Cl)c(C=O)c3cc(Cl)c(Cl)cc32)[C@H](O)[C@@H]1O [Compound 4.97]", "IC50 (nM)": 300}
{"Molecule": "O=Cc1c(Cl)n([C@@H]2O[C@H](CO)[C@@H](O)[C@H]2O)c2cc(Cl)c(Cl)cc12 [Compound 4.3]", "IC50 (nM)": 200}
{"Molecule": "CC(=O)OC[C@H]1O[C@@H](n2c(Br)c(C=O)c3cc(Cl)c(Cl)cc32)[C@H](O)[C@@H]1O [Compound 4.136]", "IC50 (nM)": 300}
